Data provenance: PubChem BioAssay (NCI)

- Test system: CAKI-1 renal
- experiment notes: NCI tumour cell line growth inhibition, 48 h
readout label: TGI

Some molecules with known TGI results, for comparison:
* COC(=O)c1ccc(C)cc1CC1Cc2ccc(C)cc2C1=O (stereo not given) | > 100 µM
* O=C(CCCN1CCC(O)(c2ccc(Cl)cc2)CC1)c1ccc(F)cc1 | 23.4 µM
* O=C(CC1OC(O)C(Cl)=C1Cl)c1cccnc1 (stereo not given) | > 100 µM
* NCCCC[C@@H]1NC(=O)[C@H](CC(=O)O)NC(=O)CNC(=O)[C@H](CCCN=C(N)N)NC(=O)[C@@H](N)CSSC[C@@H](C(=O)O)NC(=O)[C@H](CC(=O)O)NC(=O)[C@@H]2CCCN2C(=O)CNC1=O | > 100 µM
* Cc1cc2c(cc1Cl)S/C(=C/C(=O)O)C(Nc1ccc3ncsc3c1)=NS2(=O)=O | > 48.9 µM

What measured TGI is associated with C=C(C)COC1CCCCO1 (stereo not given) on CAKI-1 renal? > 100 µM

Same lookup for O=C(NC(=O)c1cc(-c2ccccc2)n[nH]1)c1ccccc1 , please. > 100 µM

---

- System: RPMI-8226 leukemia
- experiment notes: NCI tumour cell line growth inhibition, 48 h
Each entry gets 0 (no) if its TGI stays under 40 µM, and 1 (yes) if its TGI is 40 µM or above.

Hello, I need to know if Clc1cccc(NN=Nc2ccc(-c3nc4ccccc4s3)cc2)c1 has measured TGI not below 40 µM. Thanks! 1 (yes)

Same lookup for ClC/C=C/COC1CCCCO1 (configuration not stated) , please. 1 (yes)

Same lookup for C=C(C)COC1CCCCO1 (configuration not stated) , please. 1 (yes)

Same lookup for CN(c1ccc(C(=O)c2ccc(N(C)S(C)(=O)=O)cc2)cc1)S(C)(=O)=O , please. 1 (yes)

Same lookup for C=C1C(=O)O[C@@H]2[C@H](O)[C@@H](C)[C@@H]3C=CC(=O)[C@@]3(C)[C@@H](OC(=O)/C(C)=C/C)[C@H]12 , please. 0 (no)

---

- System: OVCAR-5 ovarian
- experiment notes: NCI tumour cell line growth inhibition, 48 h
readout label: TGI (µM)
Please state the figure in µM; there is no need to write the unit.

Some compounds with known TGI results, for comparison:
- CCOC(=O)C(NC(=O)c1ccccc1)(N1CCN(c2cc3c(cc2F)c(=O)c(C(=O)O)cn3CC)CC1)C(F)(F)F (stereo unspecified): 45.3
- COc1ccc2c(c1)c(-c1nc(-c3c[nH]c4ccncc34)cs1)cn2C: 3.06
- COC(=O)c1ccc(C)cc1CC1Cc2ccc(C)cc2C1=O (stereo unspecified): 92.4
- O=C(CCC=C(S(=O)(=O)c1ccccc1)S(=O)(=O)c1ccccc1)c1ccccc1: 24
- CCC(C)[C@H](NC(=O)Nc1cc(C(F)(F)F)cc(C(F)(F)F)c1)C(=O)N[C@@H](Cc1cn(C)cn1)C(=O)OC (stereo partly specified): 1.83
- COc1ccc2c3c([nH]c2c1)CCN(CCCC(=O)c1ccc(F)cc1)C3: 27.1

Now for a further compound.
Please give the measured TGI for this compound: Cc1cccc(N2C(=O)C3c4[nH]c5ccccc5c4C4CCC(C(C)(C)C)CC4C3C2=O)c1 (stereo unspecified) 35.2

---

- Test system: T-47D breast
- experiment notes: NCI tumour cell line growth inhibition, 48 h
readout label: TGI (µM)
Please state the figure in µM; there is no need to write the unit.

Some molecules with known TGI results, for comparison:
* CNC(=O)c1c(NC(=O)c2ccc(C(C)(C)C)cc2)sc2c1CCC(=O)C2 | 1.53
* CCC(C)Nc1ccc(N)cc1 (stereo not given) | 14.1
* C=C1CC(Cn2ccc(=O)[nH]c2=O)(c2ccc(Cl)cc2)OC1=O (stereo not given) | 12.1
* CC1C(C)N(C(=O)CCl)c2ccccc2N1C(=O)CCl (stereo not given) | 2.67
* COc1ccc2c3c([nH]c2c1)CCN(CCCC(=O)c1ccc(F)cc1)C3 | 37

Now for a further molecule.
Please give the measured TGI for this molecule: O=C1CC[C@@]2(O)[C@H]3Cc4ccc(-c5ccccc5)c5c4[C@@]2(CCN3CC2CC2)[C@H]1O5 35.7
